molecular target: AMPK 221 (Homo sapiens, UniProt O43741+P54646); construct: open reading frames encoding the full-length α2, β2 and δ1 subunits of human AMPK; experiment: Biochemical profiling of AMPK activators by AMPK221 (HTRF/TR-FRET assay, SAMS peptide, PP2A dephosphorylation protection); details: phosphorylated AMPK 221 (α2β2δ1); 11 point dilution, duplicate; 4-parameter fit
Sequence (P54646 whole entry): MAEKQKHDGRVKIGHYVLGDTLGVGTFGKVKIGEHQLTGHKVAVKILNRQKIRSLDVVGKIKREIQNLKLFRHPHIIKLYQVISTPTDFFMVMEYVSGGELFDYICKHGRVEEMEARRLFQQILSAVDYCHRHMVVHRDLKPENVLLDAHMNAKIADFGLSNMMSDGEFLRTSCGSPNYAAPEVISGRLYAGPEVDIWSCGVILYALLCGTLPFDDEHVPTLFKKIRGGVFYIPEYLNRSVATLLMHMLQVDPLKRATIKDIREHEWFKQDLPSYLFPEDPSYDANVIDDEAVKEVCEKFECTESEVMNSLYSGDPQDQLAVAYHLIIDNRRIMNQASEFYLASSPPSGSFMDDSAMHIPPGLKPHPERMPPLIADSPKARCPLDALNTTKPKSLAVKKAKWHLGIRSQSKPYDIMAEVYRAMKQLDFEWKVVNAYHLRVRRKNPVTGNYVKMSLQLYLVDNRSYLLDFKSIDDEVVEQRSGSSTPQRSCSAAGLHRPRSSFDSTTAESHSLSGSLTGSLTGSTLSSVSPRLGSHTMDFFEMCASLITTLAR
Sequence (O43741 whole entry): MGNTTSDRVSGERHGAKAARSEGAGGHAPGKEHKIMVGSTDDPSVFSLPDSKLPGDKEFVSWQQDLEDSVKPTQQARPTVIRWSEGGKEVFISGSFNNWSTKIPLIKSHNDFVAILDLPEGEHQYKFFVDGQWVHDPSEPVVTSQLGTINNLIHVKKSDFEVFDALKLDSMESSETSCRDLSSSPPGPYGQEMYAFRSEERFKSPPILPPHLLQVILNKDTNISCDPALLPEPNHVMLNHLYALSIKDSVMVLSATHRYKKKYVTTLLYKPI
Sequence (P54619 whole entry partner): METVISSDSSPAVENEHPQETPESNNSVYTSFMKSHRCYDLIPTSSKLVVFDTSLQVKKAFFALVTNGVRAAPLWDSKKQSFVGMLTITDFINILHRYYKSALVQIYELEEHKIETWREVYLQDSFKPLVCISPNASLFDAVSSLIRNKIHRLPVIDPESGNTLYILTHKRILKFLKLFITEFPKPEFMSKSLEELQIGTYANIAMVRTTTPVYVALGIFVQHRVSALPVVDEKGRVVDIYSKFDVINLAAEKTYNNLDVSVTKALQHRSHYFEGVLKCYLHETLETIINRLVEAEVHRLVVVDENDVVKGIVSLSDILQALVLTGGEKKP
Reported Metric: EC50 (nM)

Smiles Entry | EC50 [nM]
Cn1c(O)nc2cc(-c3ccc(-c4cc5c(CCC(=O)O)n[nH]c5cc4Cl)cc3)ccc21 | 644

1 = O=C(O)CCc1n[nH]c2cc(Cl)c(-c3ccc(-c4cnsc4)cc3)cc12
2 = Cc1ccc(-c2ccc(-c3cc4c(CCC(=O)O)n[nH]c4cc3Cl)cc2)s1
Q) Consider entries 1 and 2 . Which has the numerically lower EC50? Returns: label corresponding to the selected item.
A) 2
(2: 477 nM, 1: 795 nM)
